These measurements were taken from ChEMBL document CHEMBL4627338.

# tested-system: CDK6/cyclin D3 (Homo sapiens, UniProt Q00534)
# Sequence (P30281 whole entry): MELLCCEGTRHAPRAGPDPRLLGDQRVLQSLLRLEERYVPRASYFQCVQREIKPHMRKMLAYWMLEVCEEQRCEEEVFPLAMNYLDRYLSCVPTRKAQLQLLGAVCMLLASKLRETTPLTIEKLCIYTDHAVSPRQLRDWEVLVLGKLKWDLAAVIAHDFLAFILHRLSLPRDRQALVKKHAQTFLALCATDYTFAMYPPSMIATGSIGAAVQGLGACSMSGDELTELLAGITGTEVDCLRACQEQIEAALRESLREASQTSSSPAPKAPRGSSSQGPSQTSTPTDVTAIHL
# Sequence (Q00534 whole entry): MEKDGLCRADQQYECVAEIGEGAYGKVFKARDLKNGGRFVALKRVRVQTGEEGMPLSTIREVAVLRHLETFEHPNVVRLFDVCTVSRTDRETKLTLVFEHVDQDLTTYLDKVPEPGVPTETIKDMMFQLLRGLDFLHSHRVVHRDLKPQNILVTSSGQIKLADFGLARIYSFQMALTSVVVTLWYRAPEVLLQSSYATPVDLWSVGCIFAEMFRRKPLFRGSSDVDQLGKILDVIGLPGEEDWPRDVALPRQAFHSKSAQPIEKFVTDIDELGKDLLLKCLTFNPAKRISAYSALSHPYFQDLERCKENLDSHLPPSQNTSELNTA
# measurement-notes: Inhibition of human CDK6/cyclin-D3 using RB protein as substrate by [gamma-33P]-ATP assay
# Format: protein-complex assay
# details: read-out: IC50
assay-metric: pIC50
Give bare numbers, as −log10 of the molar value.

IN: Endpoint output: pIC50 of CC(=O)c1c(C)c2cnc(Nc3ccc(N4CCN(CCCCCCCC(=O)N[C@H](C(=O)N5C[C@H](O)C[C@H]5C(=O)N[C@@H](C)c5ccc(-c6scnc6C)cc5)C(C)(C)C)CC4)cn3)nc2n(C2CCCC2)c1=O . Value?
OUT: 6.70

----------
# tested-system: CDK6/cyclin D3 (Homo sapiens, UniProt Q00534)
# measurement-notes: Inhibition of human CDK6/cyclin-D3 using RB protein as substrate by [gamma-33P]-ATP assay
# Type: protein-complex assay
# details: read-out: pIC50 (converted)
Provide the reported IC50 of each item.
Answers are plain numbers, in nM.

{"compound": "CN[C@@H](C)C(=O)N[C@H](C(=O)N1C[C@@H](NC(=O)COCCOCCOCCN2CCN(c3ccc(Nc4ncc5c(C)c(C(C)=O)c(=O)n(C6CCCC6)c5n4)nc3)CC2)C[C@H]1C(=O)Nc1c(F)cccc1F)C(C)(C)C", "IC50 / nM": 15.8}
{"compound": "CN[C@@H](C)C(=O)N[C@H](C(=O)N1C[C@@H](NC(=O)CCOCCOCCOCCNC(=O)CN2CCN(c3ccc(Nc4ncc5c(C)c(C(C)=O)c(=O)n(C6CCCC6)c5n4)nc3)CC2)C[C@H]1C(=O)Nc1c(F)cccc1F)C(C)(C)C", "IC50 / nM": 39.8}
{"compound": "CC(=O)c1c(C)c2cnc(Nc3ccc(N4CCN(CCOCCOCCNC(=O)CNc5cccc6c5C(=O)N(C5CCC(=O)NC5=O)C6=O)CC4)cn3)nc2n(C2CCCC2)c1=O (centres undefined)", "IC50 / nM": 15.8}

Okay, now this compound:
IN: Endpoint output: IC50 of CN[C@@H](C)C(=O)N[C@H](C(=O)N1C[C@@H](NC(=O)CCCCCCCN2CCN(c3ccc(Nc4ncc5c(C)c(C(C)=O)c(=O)n(C6CCCC6)c5n4)nc3)CC2)C[C@H]1C(=O)Nc1c(F)cccc1F)C(C)(C)C . Value?
OUT: 12.6
